target: Homeodomain-interacting protein kinase 1 (Homo sapiens) (UniProt Q86Z02); conditions: at 0.1 µM
Sequence (Q86Z02 whole entry, looked up): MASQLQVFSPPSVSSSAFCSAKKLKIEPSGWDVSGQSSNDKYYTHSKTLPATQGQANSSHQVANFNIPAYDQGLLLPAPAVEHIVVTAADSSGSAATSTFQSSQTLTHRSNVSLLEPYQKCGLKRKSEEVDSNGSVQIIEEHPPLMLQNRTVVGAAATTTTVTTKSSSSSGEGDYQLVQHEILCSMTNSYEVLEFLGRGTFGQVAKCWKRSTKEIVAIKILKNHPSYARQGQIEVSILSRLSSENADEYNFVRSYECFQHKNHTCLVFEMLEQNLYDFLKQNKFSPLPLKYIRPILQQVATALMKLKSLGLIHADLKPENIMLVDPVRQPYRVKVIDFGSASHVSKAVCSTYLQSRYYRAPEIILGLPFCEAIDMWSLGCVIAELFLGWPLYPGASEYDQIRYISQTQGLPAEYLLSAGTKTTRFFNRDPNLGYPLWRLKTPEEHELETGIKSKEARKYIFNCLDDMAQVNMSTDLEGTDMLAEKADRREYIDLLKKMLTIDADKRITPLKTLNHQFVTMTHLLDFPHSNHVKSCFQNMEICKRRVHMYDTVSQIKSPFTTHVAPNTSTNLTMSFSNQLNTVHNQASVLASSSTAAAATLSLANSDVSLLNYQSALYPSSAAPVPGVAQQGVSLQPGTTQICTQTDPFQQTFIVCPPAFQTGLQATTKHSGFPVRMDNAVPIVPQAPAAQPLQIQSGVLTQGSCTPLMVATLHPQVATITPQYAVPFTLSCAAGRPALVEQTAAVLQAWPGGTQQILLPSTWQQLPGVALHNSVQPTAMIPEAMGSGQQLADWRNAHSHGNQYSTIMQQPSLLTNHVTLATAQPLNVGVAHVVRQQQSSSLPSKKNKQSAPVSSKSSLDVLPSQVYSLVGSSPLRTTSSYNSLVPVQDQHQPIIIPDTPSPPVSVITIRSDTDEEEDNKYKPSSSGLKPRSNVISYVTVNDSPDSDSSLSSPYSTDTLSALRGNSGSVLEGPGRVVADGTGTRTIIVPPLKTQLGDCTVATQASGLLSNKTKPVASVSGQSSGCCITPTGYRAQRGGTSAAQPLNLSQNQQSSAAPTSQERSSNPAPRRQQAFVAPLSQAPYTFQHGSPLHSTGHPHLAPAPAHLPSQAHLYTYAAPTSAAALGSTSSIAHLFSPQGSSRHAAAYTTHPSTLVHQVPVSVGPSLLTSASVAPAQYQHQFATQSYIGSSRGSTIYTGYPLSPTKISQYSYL
inhibition values by entry
Answer with a number only, understood to be in %.

The following molecules have reported results that may help.
>  <structureSmilesString>
Cc1ccc(C(=O)NC(C)C)cc1-c1ccc(C(=O)NCC2CC2)cc1

>  <systemTested>
Homeodomain-interacting protein kinase 1 (Homo sapiens) (UniProt Q86Z02)

>  <propertyName>
inhibition

>  <quantitativeReadout>
-2.55

$$$$
>  <structureSmilesString>
Cc1nnc(-c2ccc(C)c(-c3ccc(C(=O)NCc4ccc(Cl)cc4)cc3)c2)o1

>  <systemTested>
Homeodomain-interacting protein kinase 1 (Homo sapiens) (UniProt Q86Z02)

>  <propertyName>
inhibition

>  <quantitativeReadout>
-2.88

$$$$
>  <structureSmilesString>
Fc1ccc(-c2nc3n(c2-c2ccncc2)CCS3)cc1

>  <systemTested>
Homeodomain-interacting protein kinase 1 (Homo sapiens) (UniProt Q86Z02);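 further: each value is a mean percent inhibition of HIPK1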

>  <propertyName>
inhibition

>  <quantitativeReadout>
-4.87

$$$$

What inhibition value was documented for this molecule, Fc1ccc(-c2c(-c3ccncc3)nc3n2CCS3)cc1 ?
-3.99

What inhibition value was documented for this molecule, CS(=O)(=O)CCNCc1ccc(-c2ccc3ncnc(Nc4ccc(OCc5ccccc5)c(Br)c4)c3c2)o1 ?
-5.84

What inhibition value was documented for this molecule, COc1ccc(C2=C(N3CCc4ccccc43)C(=O)NC2=O)cc1 ?
4.48

What inhibition value was documented for this molecule, O=C(NCC1CC1)c1ccc(-c2cccc(C(=O)NC3CC3)c2)cc1 ?
-0.22

What inhibition value was documented for this molecule, COc1cc(C)c(N(C)C(=O)CN(C)C)cc1Nc1nc(Nc2cccc(F)c2C(N)=O)c2cc[nH]c2n1 ?
-4.07

What inhibition value was documented for this molecule, c1ccc(-c2n[nH]cc2-c2ccnc(-c3ccc(OCCN4CCOCC4)cc3)c2)nc1 ?
0.91

What inhibition value was documented for this molecule, C[C@@H](Oc1cc(-n2cnc3ccc(OC4CCN(C)CC4)cc32)sc1C(N)=O)c1ccccc1Cl ?
-4.32
